test system: Streptococcus mutans; assay: Agonist activity at Streptococcus mutans SAB249 ComD receptor assessed as increase in cipB expression at 10 uM after 1 hr by beta-galactosidase reporter gene assay relative to control
Non-standard residues stand in square brackets, D forms with d. Residues, ends and D or L forms follow the SMILES beside them. NMeF = CN[C@@H](Cc1ccccc1)C(=O)O; NMeN = CN[C@@H](CC(N)=O)C(=O)O; NMeL = CN[C@@H](CC(C)C)C(=O)O; NMeS = CN[C@@H](CO)C(=O)O
Kindly state Activity for each of the entries shown.
Supply the numeric figure in %, leaving out any unit text.

Activity lookup needed for CC(C)C[C@H](NC(=O)[C@H](CCCNC(=N)N)NC(=O)[C@H](Cc1ccccc1)NC(=O)[C@H](Cc1ccccc1)NC(=O)[C@@H](NC(=O)[C@H](CO)NC(=O)[C@H](CC(C)C)NC(=O)[C@@H](N)CO)[C@@H](C)O)C(=O)N[C@@H](Cc1ccccc1)C(=O)N(C)[C@@H](CC(N)=O)C(=O)N[C@@H](CCCNC(=N)N)C(=O)N[C@@H](CO)C(=O)N[C@@H](Cc1ccccc1)C(=O)N[C@H](C(=O)N[C@@H](CCC(N)=O)C(=O)N[C@@H](C)C(=O)O)[C@@H](C)O (H-SLSTFFRLF[NMeN]RSFTQA-OH) , thanks.
11

How about CC(C)C[C@H](NC(=O)[C@H](CCCNC(=N)N)NC(=O)[C@H](Cc1ccccc1)NC(=O)[C@H](Cc1ccccc1)NC(=O)[C@@H](NC(=O)[C@H](CO)NC(=O)[C@H](CC(C)C)NC(=O)[C@@H](N)CO)[C@@H](C)O)C(=O)N[C@@H](Cc1ccccc1)C(=O)N[C@@H](CC(N)=O)C(=O)N[C@@H](CCCNC(=N)N)C(=O)N[C@@H](CO)C(=O)N(C)[C@@H](Cc1ccccc1)C(=O)N[C@H](C(=O)N[C@@H](CCC(N)=O)C(=O)N[C@@H](C)C(=O)O)[C@@H](C)O (H-SLSTFFRLFNRS[NMeF]TQA-OH) ?
17

How about CC(C)C[C@H](NC(=O)[C@@H](N)CO)C(=O)N[C@@H](CO)C(=O)N[C@H](C(=O)N[C@@H](Cc1ccccc1)C(=O)N[C@@H](Cc1ccccc1)C(=O)N[C@@H](CCCNC(=N)N)C(=O)N(C)[C@@H](CC(C)C)C(=O)N[C@@H](Cc1ccccc1)C(=O)N[C@@H](CC(N)=O)C(=O)N[C@@H](CCCNC(=N)N)C(=O)N[C@@H](CO)C(=O)N[C@@H](Cc1ccccc1)C(=O)N[C@H](C(=O)N[C@@H](CCC(N)=O)C(=O)N[C@@H](C)C(=O)O)[C@@H](C)O)[C@@H](C)O (H-SLSTFFR[NMeL]FNRSFTQA-OH) ?
29

How about CC(C)C[C@H](NC(=O)[C@H](CCCNC(=N)N)NC(=O)[C@H](Cc1ccccc1)NC(=O)[C@H](Cc1ccccc1)NC(=O)[C@@H](NC(=O)[C@H](CO)NC(=O)[C@H](CC(C)C)NC(=O)[C@@H](N)CO)[C@@H](C)O)C(=O)N[C@@H](Cc1ccccc1)C(=O)N[C@@H](CC(N)=O)C(=O)N[C@@H](CCCNC(=N)N)C(=O)N(C)[C@@H](CO)C(=O)N[C@@H](Cc1ccccc1)C(=O)N[C@H](C(=O)N[C@@H](CCC(N)=O)C(=O)N[C@@H](C)C(=O)O)[C@@H](C)O (H-SLSTFFRLFNR[NMeS]FTQA-OH) ?
12

====

tested on: Streptococcus mutans; test: Antagonist activity at Streptococcus mutans SAB249 ComD receptor assessed as inhibition of 18-CSP-induced cipB expression at 10 uM after 1 hr by beta-galactosidase reporter gene assay
Activity calls are given as the source filed them. The calls are words filed in the database; no cut-off is given here. Non-standard residues stand in square brackets, D forms with d. Residues, ends and D or L forms follow the SMILES beside them. NMeR = CN[C@@H](CCCNC(=N)N)C(=O)O; NMeF = CN[C@@H](Cc1ccccc1)C(=O)O; NMeL = CN[C@@H](CC(C)C)C(=O)O
reported.endpoint: inhibition

* CC(C)C[C@H](NC(=O)[C@@H](N)CO)C(=O)N[C@@H](CO)C(=O)N[C@H](C(=O)N[C@@H](Cc1ccccc1)C(=O)N[C@@H](Cc1ccccc1)C(=O)N[C@@H](CCCNC(=N)N)C(=O)N(C)[C@@H](CC(C)C)C(=O)N[C@@H](Cc1ccccc1)C(=O)N[C@@H](CC(N)=O)C(=O)N[C@@H](CCCNC(=N)N)C(=O)N[C@@H](CO)C(=O)N[C@@H](Cc1ccccc1)C(=O)N[C@H](C(=O)N[C@@H](CCC(N)=O)C(=O)N[C@@H](C)C(=O)O)[C@@H](C)O)[C@@H](C)O (H-SLSTFFR[NMeL]FNRSFTQA-OH) | inactive
* CC(C)C[C@H](NC(=O)[C@@H](N)CO)C(=O)N[C@@H](CO)C(=O)N[C@H](C(=O)N[C@@H](Cc1ccccc1)C(=O)N[C@@H](Cc1ccccc1)C(=O)N(C)[C@@H](CCCNC(=N)N)C(=O)N[C@@H](CC(C)C)C(=O)N[C@@H](Cc1ccccc1)C(=O)N[C@@H](CC(N)=O)C(=O)N[C@@H](CCCNC(=N)N)C(=O)N[C@@H](CO)C(=O)N[C@@H](Cc1ccccc1)C(=O)N[C@H](C(=O)N[C@@H](CCC(N)=O)C(=O)N[C@@H](C)C(=O)O)[C@@H](C)O)[C@@H](C)O (H-SLSTFF[NMeR]LFNRSFTQA-OH) | inactive
* CC(C)C[C@H](NC(=O)[C@@H](N)CO)C(=O)N[C@@H](CO)C(=O)N[C@H](C(=O)N[C@@H](Cc1ccccc1)C(=O)N[C@@H](Cc1ccccc1)C(=O)N[C@@H](CCCNC(=N)N)C(=O)N[C@@H](CC(C)C)C(=O)N(C)[C@@H](Cc1ccccc1)C(=O)N[C@@H](CC(N)=O)C(=O)N[C@@H](CCCNC(=N)N)C(=O)N[C@@H](CO)C(=O)N[C@@H](Cc1ccccc1)C(=O)N[C@H](C(=O)N[C@@H](CCC(N)=O)C(=O)N[C@@H](C)C(=O)O)[C@@H](C)O)[C@@H](C)O (H-SLSTFFRL[NMeF]NRSFTQA-OH) | inactive

====

Kindly state Activity for each of the entries shown.
tested on: Streptococcus mutans; experiment: Agonist activity at Streptococcus mutans SAB249 ComD receptor assessed as increase in cipB expression at 10 uM after 1 hr by beta-galactosidase reporter gene assay relative to control
Non-standard residues stand in square brackets, D forms with d. Residues, ends and D or L forms follow the SMILES beside them. NMeR = CN[C@@H](CCCNC(=N)N)C(=O)O; NMeF = CN[C@@H](Cc1ccccc1)C(=O)O; NMeT = CN[C@H](C(=O)O)[C@@H](C)O
Supply the numeric figure in %, leaving out any unit text.

Activity lookup needed for CC(C)C[C@H](NC(=O)[C@H](CCCNC(=N)N)NC(=O)[C@H](Cc1ccccc1)NC(=O)[C@H](Cc1ccccc1)NC(=O)[C@@H](NC(=O)[C@H](CO)NC(=O)[C@H](CC(C)C)NC(=O)[C@@H](N)CO)[C@@H](C)O)C(=O)N[C@@H](Cc1ccccc1)C(=O)N[C@@H](CC(N)=O)C(=O)N(C)[C@@H](CCCNC(=N)N)C(=O)N[C@@H](CO)C(=O)N[C@@H](Cc1ccccc1)C(=O)N[C@H](C(=O)N[C@@H](CCC(N)=O)C(=O)N[C@@H](C)C(=O)O)[C@@H](C)O (H-SLSTFFRLFN[NMeR]SFTQA-OH) , thanks.
5

How about CC(C)C[C@H](NC(=O)[C@@H](N)CO)C(=O)N[C@@H](CO)C(=O)N[C@H](C(=O)N[C@@H](Cc1ccccc1)C(=O)N[C@@H](Cc1ccccc1)C(=O)N(C)[C@@H](CCCNC(=N)N)C(=O)N[C@@H](CC(C)C)C(=O)N[C@@H](Cc1ccccc1)C(=O)N[C@@H](CC(N)=O)C(=O)N[C@@H](CCCNC(=N)N)C(=O)N[C@@H](CO)C(=O)N[C@@H](Cc1ccccc1)C(=O)N[C@H](C(=O)N[C@@H](CCC(N)=O)C(=O)N[C@@H](C)C(=O)O)[C@@H](C)O)[C@@H](C)O (H-SLSTFF[NMeR]LFNRSFTQA-OH) ?
45

How about CC(C)C[C@H](NC(=O)[C@@H](N)CO)C(=O)N[C@@H](CO)C(=O)N[C@H](C(=O)N[C@@H](Cc1ccccc1)C(=O)N[C@@H](Cc1ccccc1)C(=O)N[C@@H](CCCNC(=N)N)C(=O)N[C@@H](CC(C)C)C(=O)N(C)[C@@H](Cc1ccccc1)C(=O)N[C@@H](CC(N)=O)C(=O)N[C@@H](CCCNC(=N)N)C(=O)N[C@@H](CO)C(=O)N[C@@H](Cc1ccccc1)C(=O)N[C@H](C(=O)N[C@@H](CCC(N)=O)C(=O)N[C@@H](C)C(=O)O)[C@@H](C)O)[C@@H](C)O (H-SLSTFFRL[NMeF]NRSFTQA-OH) ?
0

How about CC(C)C[C@H](NC(=O)[C@H](CCCNC(=N)N)NC(=O)[C@H](Cc1ccccc1)NC(=O)[C@H](Cc1ccccc1)NC(=O)[C@@H](NC(=O)[C@H](CO)NC(=O)[C@H](CC(C)C)NC(=O)[C@@H](N)CO)[C@@H](C)O)C(=O)N[C@@H](Cc1ccccc1)C(=O)N[C@@H](CC(N)=O)C(=O)N[C@@H](CCCNC(=N)N)C(=O)N[C@@H](CO)C(=O)N[C@@H](Cc1ccccc1)C(=O)N(C)[C@H](C(=O)N[C@@H](CCC(N)=O)C(=O)N[C@@H](C)C(=O)O)[C@@H](C)O (H-SLSTFFRLFNRSF[NMeT]QA-OH) ?
38
